- Tested On: T1, Human CD3eg linker (human)
- T1 construct: Single chain: epsilon and gamma subunits of human CD3 joined by a 29-mer linker, Flag-tag at the C-terminus; also called recombinant human CD3
- T1 chain: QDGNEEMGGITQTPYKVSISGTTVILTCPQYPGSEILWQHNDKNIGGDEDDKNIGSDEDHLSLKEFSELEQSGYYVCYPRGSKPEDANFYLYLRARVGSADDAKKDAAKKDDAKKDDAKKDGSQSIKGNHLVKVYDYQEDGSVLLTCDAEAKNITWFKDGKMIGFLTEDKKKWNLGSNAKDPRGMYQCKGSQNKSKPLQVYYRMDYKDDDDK
- Assay: Biacore SPR, vs template H183/L072
Readings of fold change of affinity for the listed binders
Express the result in fold but write the number alone.

H183/L072 VH K52bH (antibody, name in Kabat numbering, V domains shown) VH: QVQLVESGGGLVQPGRSLRLSCAASGFTFSNAWMHWVRQAPGKGLEWVAQIKDHGNAYAAYYAPSVKGRFTISRDDSKNSIYLQMNSLKTEDTAVYYCHYVHYASASTVLPAFGVDAWGQGTTVTVSS VL: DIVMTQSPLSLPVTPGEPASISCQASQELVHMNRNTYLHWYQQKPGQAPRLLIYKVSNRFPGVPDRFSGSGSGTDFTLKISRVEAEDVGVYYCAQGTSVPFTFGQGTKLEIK : 0.7
H183/L072 VH A54Y (antibody, name in Kabat numbering, V domains shown) VH: QVQLVESGGGLVQPGRSLRLSCAASGFTFSNAWMHWVRQAPGKGLEWVAQIKDKGNYYAAYYAPSVKGRFTISRDDSKNSIYLQMNSLKTEDTAVYYCHYVHYASASTVLPAFGVDAWGQGTTVTVSS VL: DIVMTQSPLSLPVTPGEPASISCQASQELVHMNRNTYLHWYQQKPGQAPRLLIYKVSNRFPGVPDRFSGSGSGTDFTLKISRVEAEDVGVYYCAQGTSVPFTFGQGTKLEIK : 1

Let us move to another entry and its fold change of affinity.
## Task Which fold change of affinity value belongs to H183/L072 VH P61A (antibody, name in Kabat numbering, V domains shown) VH: QVQLVESGGGLVQPGRSLRLSCAASGFTFSNAWMHWVRQAPGKGLEWVAQIKDKGNAYAAYYAASVKGRFTISRDDSKNSIYLQMNSLKTEDTAVYYCHYVHYASASTVLPAFGVDAWGQGTTVTVSS VL: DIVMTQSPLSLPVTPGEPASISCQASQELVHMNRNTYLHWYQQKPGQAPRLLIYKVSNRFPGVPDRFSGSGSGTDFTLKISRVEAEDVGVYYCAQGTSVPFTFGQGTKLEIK ?
## Result 1.9

// provenance: patent US20210388087A1
